Just for reference, patent US12384777B2 is where these values come from.

- TGT: BRD4 BD1 (Homo sapiens (Human), UniProt O60885)
- PROTOCOL DETAILS: Bromodomain binding assay (T7 phage display, qPCR), BRD4 BD1
- MEASUREMENT CONTEXT: read-out: BRD4 BD1 Kd
PROPERTY LABEL: Kd

What does the data say about its Kd? Entry: COc1ccccc1Oc1c(-c2cn(C)c(=O)c3[nH]ccc23)ccn(C)c1=O [Example 30]
0.01 to 0.1 µM

----------
- Tested on: human liver hepatocytes
- PROTOCOL DETAILS: Intrinsic clearance in human liver hepatocytes
- Assay type: in vitro ADME
- MEASUREMENT CONTEXT: human cryopreserved hepatocytes, 0.5 μM test compound
PROPERTY LABEL: Intrinsic clearance, % Liver Blood Flow (% Liver Blood Flow)

COc1ccc(Oc2cn(C)c(=O)cc2-c2cn(C)c(=O)c3[nH]ccc23)cc1 [Example 25]
38

A: Cn1cc(Cc2ccccc2)c(-c2cn(C)c(=O)c3[nH]ccc23)cc1=O [Example 13]
B: Cn1cc(-c2cc(O)ccc2Oc2ccccc2)c2cc[nH]c2c1=O [Example 6]
Of A versus B , which is the one with smaller reported Intrinsic clearance, % Liver Blood Flow? Give the label of your selection.
A

----------
Form field: Kd (one value per entry).
- TGT: BRD4 BD1 (Homo sapiens (Human))
- PROTOCOL DETAILS: Bromodomain binding assay (T7 phage display, qPCR), BRD4 BD1
- MEASUREMENT CONTEXT: read-out: BRD4 BD1 Kd

Completed entries (count: 10):
Cn1cc(-c2cc(O)ccc2OC2CCCCC2)c2cc[nH]c2c1=O
≤ 0.01 µM
Cn1cc(-c2ccn(C)c(=O)c2Oc2ccc(O)cc2)ccc1=O
0.1 to 1 µM
Cc1cc(F)cc(C)c1Oc1c(-c2ccc(=O)n(C)c2)ccn(C)c1=O
> 1 µM
Cn1cc(-c2ccn(C)c(=O)c2Oc2ccccc2O)ccc1=O
0.1 to 1 µM
CCNC(=O)c1cc2c(-c3ccn(C)c(=O)c3Oc3c(C)cc(F)cc3C)cn(C)c(=O)c2[nH]1
> 1 µM
Cn1cc(Cc2ccccc2)c(-c2cn(C)c(=O)c3[nH]ccc23)cc1=O
0.1 to 1 µM
Cn1cc(-c2cc(=O)n(C)cc2Oc2cccc(O)c2)ccc1=O
0.01 to 0.1 µM
Cn1cc(-c2ccc(O)cc2Oc2ccccc2)c2cc[nH]c2c1=O
0.01 to 0.1 µM
Cn1cc(-c2nccn2Cc2ccccc2)c2cc[nH]c2c1=O
0.1 to 1 µM
CCCOc1ccc(O)cc1-c1cn(C)c(=O)c2[nH]ccc12
0.01 to 0.1 µM

Find the recorded Kd belonging to Cn1cc(-c2ncnn2Cc2ccccc2)c2cc[nH]c2c1=O and report it.
0.1 to 1 µM

Consider the molecule Cn1cc(-c2cc(O)ccc2Oc2ccccc2)ccc1=O and give its measured Kd.
0.01 to 0.1 µM

Which measured Kd value corresponds to Cc1cc(F)cc(C)c1Oc1c(-c2cn(C)c(=O)c3[nH]c(C(=O)NC(C)(C)C)cc23)ccn(C)c1=O ?
> 1 µM
